Cited source for all entries: patent US12091425B2

- Assay target: Mcl-1/Bim interaction, recombinant human Mcl-1 (171-327) (Homo sapiens)
- Construct: made in house
- Sequence (Q07820 171-327): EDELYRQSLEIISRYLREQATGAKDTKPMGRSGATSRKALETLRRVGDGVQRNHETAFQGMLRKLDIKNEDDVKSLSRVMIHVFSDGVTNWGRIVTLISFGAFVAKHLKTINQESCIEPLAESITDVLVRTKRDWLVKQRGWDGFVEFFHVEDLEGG
- Assay explanation: Cell free Mcl-1: Bim Affinity Assay (Mcl-1 HTRF)
- Format: binding
- Assay conditions: TR-FRET, 0.1 nM Mcl-1 (171-327), 0.05 nM biotin-Bim (51-76)
Observable: IC50 (nM)

// below: answered compounds
Compound	IC50, nM
COCCCO[C@H]1/C=C/C[C@H](C)NS(=O)(=O)NC(=O)c2ccc3c(c2)N(C[C@@H]2CC[C@H]21)C[C@@]1(CCCc2cc(Cl)ccc21)CO3 (single isomer, unassigned)	1.13
C[C@@H]1CC/C=C/[C@H](OC[C@H](O)CO)[C@@H]2CC[C@H]2CN2C[C@@]3(CCCc4cc(Cl)ccc43)COc3ccc(cc32)C(=O)NS1(=O)=O (mixture of isomers)	0.276
COc1ccc(CN2CCCCS(=O)(=O)NC(=O)c3ccc4c(c3)N(C[C@@H]3CC[C@H]3C2=O)C[C@@]2(CCCc3cc(Cl)ccc32)CO4)cc1	31.7
Cn1cnc(CO[C@H]2/C=C/C[C@H]3CC[C@@H]3S(=O)(=O)NC(=O)c3ccc4c(c3)N(C[C@@H]3CC[C@H]32)C[C@@]2(CCCc3cc(Cl)ccc32)CO4)n1	0.467

[A] COC1CC(N2[C@H](C)C/C=C/[C@H](O)[C@@H]3CC[C@H]3CN3C[C@@]4(CCCc5cc(Cl)ccc54)COc4ccc(cc43)C(=O)NS2(=O)=O)C1 (stereo partly drawn)
[B] CC[C@@H]1CCCC[C@H](OCC(=O)O)[C@@H]2CC[C@H]2CN2C[C@@]3(CCCc4cc(Cl)ccc43)COc3ccc(cc32)C(=O)NS1(=O)=O
Recorded IC50 values differ for A and B ; which one is higher? Let me know the label of the one you choose.
A
(A: 4.18 nM, B: 0.221 nM)

[A] COCCOCCOCCO[C@H]1/C=C/C[C@H](C)[C@@H](C)S(=O)(=O)NC(=O)c2ccc3c(c2)N(C[C@@H]2CC[C@H]21)C[C@@]1(CCCc2cc(Cl)ccc21)CO3
[B] C/C=C/C1CC(=O)[C@@H]2CC[C@H]2CN2C[C@@]3(CCCc4cc(Cl)ccc43)COc3ccc(cc32)C(=O)NS(=O)(=O)[C@H](C)[C@@H](C)C1 (stereo in doubt) [Example 350]
[C] COCCO[C@H]1/C=C\C[C@H](C)NS(=O)(=O)NC(=O)c2ccc3c(c2)N(C[C@@H]2CC[C@H]21)C[C@@]1(CCCc2cc(Cl)ccc21)CO3 (single isomer, unassigned)
[D] Cc1noc(C)c1CO[C@H]1/C=C/CC[C@@H](C)S(=O)(=O)NC(=O)c2ccc3c(c2)N(C[C@@H]2CC[C@H]21)C[C@@]1(CCCc2cc(Cl)ccc21)CO3
Rank ascending by IC50. A ranking is expressed here by listing the labels in the requested order.
A, C, D, B

[P] CCN1[C@@H](C)CCC[C@H](O)[C@@H]2CC[C@H]2CN2C[C@@]3(CCCc4cc(Cl)ccc43)COc3ccc(cc32)C(=O)NS1(=O)=O
[Q] C[C@@H]1CC/C=C/[C@H](OCc2nc[nH]n2)[C@@H]2CC[C@H]2CN2C[C@@]3(CCCc4cc(Cl)ccc43)COc3ccc(cc32)C(=O)NS1(=O)=O
Please choose the item with the lower IC50 value from this pair: P and Q Let me know the label of the one you choose.
Q
(Q: 0.253 nM, P: 1.88 nM)
